Consider the following compounds and their measured EC50 readings.
test system: HSV-1 strain F or KOS; assay: Inhibition of herpes simplex virus (HSV-1) replication in cell culture (BHK-21 cells, glycoprotein C ELISA); assay type: cell-based; details: Human alphaherpesvirus 1, BHK-21, Group 1 Table 3 entries
Recorded Metric: EC50 (nM)

>>> df
                                  smiles_str          system_tested  comparator  data_value
 0  CN(C(=O)CN(Cc1ccccc1)C(=O)C1CCCCC1)c1ccc(-c2csc(N)n2)cc1  HSV-1 strain F or KOS           =          16
 1  CN(C(=O)CN(Cc1ccccc1)C(=O)c1ccncc1)c1ccc(-c2csc(N)n2)cc1  HSV-1 strain F or KOS           =         340
 2  CC(=O)Nc1nc(-c2ccc(NC(=O)CN(Cc3ccccc3)C(C)=O)cc2)cs1  HSV-1 strain F or KOS           >       30000
 3  CN(C)c1nc(-c2ccc(NC(=O)CN(CC3CCCCC3)C(=O)OC(C)(C)C)cc2)cs1  HSV-1 strain F or KOS           >        8000
 4  O=C(CN(Cc1ccccc1)C(=O)C1CCCCC1)Nc1ccc(-c2cscn2)cc1  HSV-1 strain F or KOS           =          12
 5   CNc1nc(-c2ccc(NC(=O)CNCc3ccccc3)cc2)cs1  HSV-1 strain F or KOS           =        4100
 6  CNc1nc(-c2ccc(NC(=O)CN(CC3CCCCC3)C(=O)c3cccnc3)cc2)cs1  HSV-1 strain F or KOS           =        1300
 7  Cc1nc(-c2ccc(NC(=O)CN(Cc3ccccc3)C(=O)C3CCCCC3)cc2)cs1  HSV-1 strain F or KOS           =         120
 8  CC(=O)Nc1nc(-c2ccc(NC(=O)CN(Cc3ccccc3)C(=O)c3ccncc3)cc2)cs1  HSV-1 strain F or KOS           =        9000
 9  CN(C(=O)CNCc1ccccc1)c1ccc(-c2csc(N)n2)cc1  HSV-1 strain F or KOS           =        4000
10  CN(C)c1nc(-c2ccc(NC(=O)CNCc3ccccc3)cc2)cs1  HSV-1 strain F or KOS           =       21000
11  CN(C)c1nc(-c2ccc(NC(=O)CN(Cc3ccccc3)C(=O)c3ccccc3)cc2)cs1  HSV-1 strain F or KOS           =          24
12  CN(C)c1nc(-c2ccc(NC(=O)CNCC3CCCCC3)cc2)cs1  HSV-1 strain F or KOS           >        4000
13  CN(C)c1nc(-c2ccc(NC(=O)CN(Cc3ccccc3)C(=O)c3ccncc3)cc2)cs1  HSV-1 strain F or KOS           =         500
14  CNc1nc(-c2ccc(NC(=O)CN(Cc3ccccc3)C(=O)OC(C)(C)C)cc2)cs1  HSV-1 strain F or KOS           =           8
15  CN(C)c1nc(-c2ccc(NC(=O)CN(Cc3ccccc3)C(=O)OC(C)(C)C)cc2)cs1  HSV-1 strain F or KOS           =           9
16  CNc1nc(-c2ccc(NC(=O)CN(Cc3ccccc3)C(=O)C3CCCCC3)cc2)cs1  HSV-1 strain F or KOS           =           2
17  CNc1nc(-c2ccc(NC(=O)CN(Cc3ccccc3)C(=O)c3ccccc3)cc2)cs1  HSV-1 strain F or KOS           =          12
18  CC(C)c1nc(-c2ccc(NC(=O)CN(Cc3ccccc3)C(=O)c3ccccc3)cc2)cs1  HSV-1 strain F or KOS           >       25000
